# test system: recombinant conformational HCV E2 antigen (HCV genotype 1a) (hepatitis C virus, HCV1 (genotype 1a), UniProt P26664 383-715)
# Sequence (P26664 383-715): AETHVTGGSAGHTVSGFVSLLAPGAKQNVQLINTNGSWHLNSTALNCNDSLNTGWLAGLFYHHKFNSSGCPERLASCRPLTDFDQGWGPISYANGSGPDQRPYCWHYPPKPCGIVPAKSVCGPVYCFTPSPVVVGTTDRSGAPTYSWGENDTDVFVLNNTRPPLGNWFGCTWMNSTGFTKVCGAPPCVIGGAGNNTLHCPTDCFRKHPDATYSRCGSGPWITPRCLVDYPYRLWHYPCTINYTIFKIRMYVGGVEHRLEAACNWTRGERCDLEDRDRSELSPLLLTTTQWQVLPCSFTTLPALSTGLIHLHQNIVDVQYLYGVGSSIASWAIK
measurement kind: Kd

Study these solved cases before continuing.
| binder | Kd |
| --- | --- |
| Fab molecule clone 1:11 (Fab, V domains shown) VH: VQLLEQSGAEVKKPGSSVKVSCKASGGTFSGHVISWVRQAPGQGLEWMGGSISFFGTSNSAQKFQGRVSITADESASTAYMELSSLRSEDTAIYYCAKDPPRFCSGGNCYPGFFQQWGQGTLVTVSS VL: AELTQSPGTLSLSPGERATLSCGASQSVRSNYLAWYQQKPGQAPRLLIYGVSSRATGIPDRFSGSGSGTDFTLTISRLEPEDFAVYYCQQYGSSPRTFGQGTKLEIK | ~28 nM |
| Fab molecule clone 1:7 (Fab, V domains shown) VH: VQLLEQSGAEVKKPGSSVKVSCQVFGDTFSRYTIQWLRQAPGQGPEWMGNIIPVYNTPNYAQKFQGRLSITADDSTSTAYMELSSLRSEDTAVYFCARVVIPNAIRHTMGYYFDYWGQGTLVTVSS VL: AELTQSPATLSLSPGERATLSCRASQSVNKYLAWYQQKPGQAPRLLIYDASNRATGIPARFSGSGSGTDFTLTISNLEPEDFAVYYCQQRSDWVTFGGGTKVEIK | ~6 nM |

Batch of 2 binders: report Kd for each.
1. Fab molecule clone A12 (Fab, V domains shown) VH: EVQLLESGSEVKKPGSSVKVSCRASGGSFRSYNFNWVRQAPGQGLEWMGGIIPMFGTANYAQKFQGRVTITADESTATGYMELSSLRSEDTAVYYCAMPYPKHCSRGSCWGWFDPWGQGTLVTVSS VL: AELTQSPGTLSLSPGERATLSCRASQSLSSKYLAWYQQKPGQAPRLFIYDASSRATGIPDRFSGSGSGTDFTLSISRLEPEDFAVYYCQQYGTPRTFGQGTKVEIK
2. Fab molecule clone L3 (Fab, V domains shown) VH: EVQLLESGGGVVQPGRSLRLSCAASGFTFKTYGMHWVRQAPGKGLEWVAGISFDGSNQYYADSVKGRFIVSRDNSRDTVFLQMSSLRLEDTAVYYCATEGSPFGSIKGRYYLENWGQGTLVTVSS VL: AELTQSPATLSVSPGERASLSCRASQSVGNNLAWYQQKPGQAPRLLIYGGNTRATGTPDRFSGSGSGTEFTLTISSLQSEDFAVYFCQHYSTWPLTFGGGTKVEFK

Solution:
~100 nM
~28 nM

Cited source for all entries: patent US6747136
